# assay.target: EGFR (UniProt P00533)
# Sequence (P00533 whole entry, looked up): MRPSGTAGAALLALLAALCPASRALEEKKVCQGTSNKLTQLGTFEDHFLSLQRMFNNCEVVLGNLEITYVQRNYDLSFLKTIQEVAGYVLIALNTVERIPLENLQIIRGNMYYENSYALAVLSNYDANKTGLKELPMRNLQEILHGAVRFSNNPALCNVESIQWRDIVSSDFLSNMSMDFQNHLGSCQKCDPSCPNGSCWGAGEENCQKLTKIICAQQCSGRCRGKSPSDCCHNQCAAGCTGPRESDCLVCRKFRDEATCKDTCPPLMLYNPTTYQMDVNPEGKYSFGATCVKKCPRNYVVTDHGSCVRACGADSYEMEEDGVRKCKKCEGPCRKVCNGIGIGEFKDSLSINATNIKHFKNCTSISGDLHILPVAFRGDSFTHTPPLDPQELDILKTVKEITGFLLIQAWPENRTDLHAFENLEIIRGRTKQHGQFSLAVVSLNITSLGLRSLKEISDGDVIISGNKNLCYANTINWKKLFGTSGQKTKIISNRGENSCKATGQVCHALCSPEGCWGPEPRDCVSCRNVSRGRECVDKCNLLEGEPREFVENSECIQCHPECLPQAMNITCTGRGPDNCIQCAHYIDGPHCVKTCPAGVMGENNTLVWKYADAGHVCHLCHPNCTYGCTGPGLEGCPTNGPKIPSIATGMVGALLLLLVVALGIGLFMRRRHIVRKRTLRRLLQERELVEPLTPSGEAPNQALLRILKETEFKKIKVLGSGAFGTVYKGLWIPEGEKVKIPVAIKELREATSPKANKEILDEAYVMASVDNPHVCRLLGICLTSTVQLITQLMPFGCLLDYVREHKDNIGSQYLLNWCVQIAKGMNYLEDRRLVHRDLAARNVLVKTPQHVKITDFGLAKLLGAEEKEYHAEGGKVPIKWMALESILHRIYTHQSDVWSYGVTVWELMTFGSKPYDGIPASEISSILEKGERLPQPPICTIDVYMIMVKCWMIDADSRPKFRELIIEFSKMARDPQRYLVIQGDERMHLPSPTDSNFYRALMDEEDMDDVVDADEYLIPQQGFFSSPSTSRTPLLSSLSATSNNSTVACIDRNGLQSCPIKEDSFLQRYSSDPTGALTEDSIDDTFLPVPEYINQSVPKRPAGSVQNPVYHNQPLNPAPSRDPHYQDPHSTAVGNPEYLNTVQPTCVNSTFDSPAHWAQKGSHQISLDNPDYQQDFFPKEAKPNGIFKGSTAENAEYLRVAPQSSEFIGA
Can you tell me IC50 for the items I'm about to list?

Some solved entries appear below for comparison.
[[record]]
compound = "c1ccc(Nc2ncccc2-c2ncnc(Nc3cccc(Cn4ccnn4)c3)n2)cc1"
endpoint_result = "> 4.5 µg/mL"

[[record]]
compound = "COc1cc(Nc2ncnc(-n3c(Nc4ccccc4C)nc4ccccc43)n2)cc(OC)c1OC"
endpoint_result = "3.5 to 4.5 µg/mL"

[[record]]
compound = "NC(=O)c1cccc(Nc2ncnc(-n3c(N)nc4ccccc43)n2)c1"
endpoint_result = "> 4.5 µg/mL"

[[record]]
compound = "COC(=O)c1ccc(N(C)c2ncnc(Nc3ccc(OC)c(OC)c3)n2)cc1"
endpoint_result = "> 4.5 µg/mL"

[[record]]
compound = "COCCOc1ccc(Nc2ncnc(-n3c(N)nc4ccccc43)n2)cc1OC"
endpoint_result = "3.5 to 4.5 µg/mL"


Take each entry in turn and give its IC50.
1. COc1ccc(Sc2ncnc(Nc3cc(OC)c(OC)c(OC)c3)n2)cc1
2. COc1cc(Nc2ncnc(-n3c(N)nc4cc(C(F)(F)F)ccc43)n2)cc(OC)c1OC.COc1cc(Nc2ncnc(-n3c(N)nc4ccc(C(F)(F)F)cc43)n2)cc(OC)c1OC

> 4.5 µg/mL
> 4.5 µg/mL

Take each entry in turn and give its IC50.
1. COc1cc(Nc2ncnc(-n3c(Nc4ccc(Cl)cc4)nc4ccccc43)n2)cc(OC)c1OC
2. COc1cc(Nc2ncnc(N3CCCC4CCCCC43)n2)cc(OC)c1OC (centres undefined)

> 4.5 µg/mL
< 0.4 µg/mL

====

# assay.target: EGFR (UniProt P00533)
property: IC50

Some solved entries appear below for comparison.
[[record]]
compound_smiles = "COc1cc(Nc2ncnc(-n3c(NCc4ccc(Br)cc4)nc4ccccc43)n2)cc(OC)c1OC"
assay_target = "EGFR (UniProt P00533)"
property = "IC50"
endpoint_result = "> 4.5 µg/mL"

[[record]]
compound_smiles = "COc1cc(Nc2ncnc(-n3c(Nc4ccc5cn[nH]c5c4)nc4ccccc43)n2)cc(OC)c1OC"
assay_target = "EGFR (UniProt P00533)"
property = "IC50"
endpoint_result = "> 4.5 µg/mL"

[[record]]
compound_smiles = "CCc1ccccc1Nc1ncnc(-n2cccc2)n1"
assay_target = "EGFR (UniProt P00533)"
property = "IC50"
endpoint_result = "> 4.5 µg/mL"

[[record]]
compound_smiles = "COc1ccc2c(c1)nc(NCc1ccccn1)n2-c1ncnc(Nc2cc(OC)c(OC)c(OC)c2)n1.COc1ccc2nc(NCc3ccccn3)n(-c3ncnc(Nc4cc(OC)c(OC)c(OC)c4)n3)c2c1"
assay_target = "EGFR (UniProt P00533)"
property = "IC50"
endpoint_result = "> 4.5 µg/mL"

[[record]]
compound_smiles = "COC(=O)c1ccc(-c2cc(Nc3ncnc(NCCNC(C)=O)n3)[nH]n2)cc1"
assay_target = "EGFR (UniProt P00533)"
property = "IC50"
endpoint_result = "> 4.5 µg/mL"

[[record]]
compound_smiles = "COc1ccc(Nc2ncnc(Nc3ccc(OC)c(OC)c3)n2)cc1OC"
assay_target = "EGFR (UniProt P00533)"
property = "IC50"
endpoint_result = "> 4.5 µg/mL"


Take each entry in turn and give its IC50.
1. CC(=O)N1CCc2cc(Nc3ncnc(N4CCCc5cc(C)ccc54)n3)ccc21
2. COc1cc(Nc2ncnc(-n3c(NCCc4cccnc4)nc4ccccc43)n2)cc(OC)c1OC

< 0.4 µg/mL
> 4.5 µg/mL

Take each entry in turn and give its IC50.
1. CN(c1cccc(Cl)c1)c1ncnc(Nc2ccc(S(C)(=O)=O)cc2)n1
2. COCCOc1ccc(Nc2ncnc(-n3c(N)nc4ccccc43)n2)cc1OCCOC
3. COc1ccc(CNc2ncnc(Nc3cc(-c4ccco4)n[nH]3)n2)cc1
4. COc1cc(Nc2ncnc(-n3c(Nc4ccc(F)cc4)nc4ccccc43)n2)cc(OC)c1OC
5. COc1cc(Nc2ncnc(NN3CCCC3)n2)cc(OC)c1OC

1: < 0.4 µg/mL; 2: > 4.5 µg/mL; 3: > 4.5 µg/mL; 4: > 4.5 µg/mL; 5: > 4.5 µg/mL

Take each entry in turn and give its IC50.
1. COC(=O)Cc1cccc(Nc2ncnc(Nc3ccc(C)c(O)c3)n2)c1
2. COc1cc(Nc2ncnc(-c3cccnc3Cl)n2)cc(OC)c1OCCN1CCOCC1
3. COc1cc(Nc2ncnc(-n3c(NCc4ncccc4C)nc4ccccc43)n2)cc(OC)c1OC

0.4 to 2.4 µg/mL
> 4.5 µg/mL
> 4.5 µg/mL
